The values you see were collected from ChEMBL document CHEMBL1153507.

What Activity was measured for each of the following?
Tested on: CCRF S-180
Assay: Antitumor activity against mouse S180 cells implanted in ICR mouse assessed as tumor weight at 44.64 umol/kg/day, ip administered for 7 consecutive days after 24 hrs of tumor implantation measured after 24 hrs post dose
Type: functional
// note: answer is a bare numeric in g

Given NC(=O)C[C@H](N)C(=O)OC[C@@H]1S[C@H](CC=O)S[C@@H]1COC(=O)[C@@H](N)CC(N)=O , state its recorded Activity.
0.855

Given N[C@@H](Cc1ccccc1)C(=O)OC[C@@H]1S[C@H](CC=O)S[C@@H]1COC(=O)[C@@H](N)Cc1ccccc1 , state its recorded Activity.
0.693

Given N[C@@H](Cc1c[nH]c2ccccc12)C(=O)OC[C@@H]1S[C@H](CC=O)S[C@@H]1COC(=O)[C@@H](N)Cc1c[nH]c2ccccc12 , state its recorded Activity.
0.954

Given CC(C)[C@H](N)C(=O)OC[C@@H]1S[C@H](CC=O)S[C@@H]1COC(=O)[C@@H](N)C(C)C (mixture of isomers) , state its recorded Activity.
1.114

Given CC[C@H](C)[C@H](N)C(=O)OC[C@@H]1S[C@H](CC=O)S[C@@H]1COC(=O)[C@@H](N)[C@@H](C)CC , state its recorded Activity.
1.064

Given C[C@H](N)C(=O)OC[C@@H]1S[C@H](CC=O)S[C@@H]1COC(=O)[C@H](C)N , state its recorded Activity.
1.213

Given O=CC[C@H]1S[C@@H](COC(=O)[C@@H]2CCCN2)[C@@H](COC(=O)[C@@H]2CCCN2)S1 , state its recorded Activity.
1.446

Given N=C(N)NCCC[C@H](N)C(=O)OC[C@@H]1S[C@H](CC=O)S[C@@H]1COC(=O)[C@@H](N)CCCNC(=N)N , state its recorded Activity.
0.778

Given CC(C)C[C@H](N)C(=O)OC[C@@H]1S[C@H](CC=O)S[C@@H]1COC(=O)[C@@H](N)CC(C)C , state its recorded Activity.
1.296

Given NCC(=O)OC[C@@H]1S[C@H](CC=O)S[C@@H]1COC(=O)CN , state its recorded Activity.
0.723

Given NC(=O)CC[C@H](N)C(=O)OC[C@@H]1S[C@H](CC=O)S[C@@H]1COC(=O)[C@@H](N)CCC(N)=O , state its recorded Activity.
1.061

Given C[C@@H](O)[C@H](N)C(=O)OC[C@@H]1S[C@H](CC=O)S[C@@H]1COC(=O)[C@@H](N)[C@@H](C)O , state its recorded Activity.
1.087

Given NCCCC[C@H](N)C(=O)OC[C@@H]1S[C@H](CC=O)S[C@@H]1COC(=O)[C@@H](N)CCCCN , state its recorded Activity.
0.989

Given N[C@@H](Cc1c[nH]cn1)C(=O)OC[C@@H]1S[C@H](CC=O)S[C@@H]1COC(=O)[C@@H](N)Cc1c[nH]cn1 , state its recorded Activity.
1.076

Given N[C@@H](Cc1ccc(O)cc1)C(=O)OC[C@@H]1S[C@H](CC=O)S[C@@H]1COC(=O)[C@@H](N)Cc1ccc(O)cc1 , state its recorded Activity.
0.529

Given N[C@@H](CCC(=O)O)C(=O)OC[C@@H]1S[C@H](CC=O)S[C@@H]1COC(=O)[C@@H](N)CCC(=O)O , state its recorded Activity.
1.051

Given CSCC[C@H](N)C(=O)OC[C@@H]1S[C@H](CC=O)S[C@@H]1COC(=O)[C@@H](N)CCSC , state its recorded Activity.
1.139

Given N[C@@H](CO)C(=O)OC[C@@H]1S[C@H](CC=O)S[C@@H]1COC(=O)[C@@H](N)CO , state its recorded Activity.
1.493
